Catalogue of MIC readings, one per entry.
Tested on: Enterococcus faecium GC 2243
Readout name: MIC (µg/mL)

compound="CCCCCC(=O)O[C@H]1c2cc(C)cc(O)c2C(O)=C2C(=O)[C@H]3C=C[C@]21Cc1cc(O)c(C(=O)c2c(O)ccc(O)c2C(=O)OC)c(O)c13 [Example 9, Cyan-416 B hexanoate]" tgt="Enterococcus faecium GC 2243" numeric_readout=4
compound=COC(=O)c1c(O)ccc(O)c1C(=O)c1c(O)cc2c(c1O)[C@@H]1C=C[C@]3(C2)C(=C(O)c2c(O)cc(C)cc2[C@@H]3OC(C)=O)C1=O tgt="Enterococcus faecium GC 2243" numeric_readout=8
compound="COC(=O)c1c(O)ccc(O)c1C(=O)c1c(O)cc2c(c1O)[C@@H]1C=C[C@]3(C2)C(=C(O)c2c(O)cc(C)cc2[C@@H]3OC(=O)C(C)C)C1=O [Example 7, Cyan-416 B isobutyrate]" tgt="Enterococcus faecium GC 2243" numeric_readout=8
compound="CCCCC(=O)O[C@H]1c2cc(C)cc(O)c2C(O)=C2C(=O)[C@H]3C=C[C@]21Cc1cc(O)c(C(=O)c2c(O)ccc(O)c2C(=O)OC)c(O)c13 [Example 8, Cyan-416 B pentanoate]" tgt="Enterococcus faecium GC 2243" numeric_readout=4
compound="CCCC(=O)O[C@H]1c2cc(C)cc(O)c2C(O)=C2C(=O)[C@H]3C=C[C@]21Cc1cc(O)c(C(=O)c2c(O)ccc(O)c2C(=O)OC)c(O)c13 [Example 6, Cyan-416 B butyrate]" tgt="Enterococcus faecium GC 2243" numeric_readout=16

---

Tested on: Staphylococcus haemolyticus GC 4547
Readout name: MIC (µg/mL)

compound="CCCC(=O)O[C@H]1c2cc(C)cc(O)c2C(O)=C2C(=O)[C@H]3C=C[C@]21Cc1cc(O)c(C(=O)c2c(O)ccc(O)c2C(=O)OC)c(O)c13 [Example 6, Cyan-416 B butyrate]" tgt="Staphylococcus haemolyticus GC 4547" numeric_readout=16
compound="COC(=O)c1c(O)ccc(O)c1C(=O)c1c(O)cc2c(c1O)[C@@H]1C=C[C@]3(C2)C(=C(O)c2c(O)cc(C)cc2[C@@H]3OC(=O)C(C)C)C1=O [Example 7, Cyan-416 B isobutyrate]" tgt="Staphylococcus haemolyticus GC 4547" numeric_readout=4
compound="CCCCCC(=O)O[C@H]1c2cc(C)cc(O)c2C(O)=C2C(=O)[C@H]3C=C[C@]21Cc1cc(O)c(C(=O)c2c(O)ccc(O)c2C(=O)OC)c(O)c13 [Example 9, Cyan-416 B hexanoate]" tgt="Staphylococcus haemolyticus GC 4547" numeric_readout=4
compound="CCCCC(=O)O[C@H]1c2cc(C)cc(O)c2C(O)=C2C(=O)[C@H]3C=C[C@]21Cc1cc(O)c(C(=O)c2c(O)ccc(O)c2C(=O)OC)c(O)c13 [Example 8, Cyan-416 B pentanoate]" tgt="Staphylococcus haemolyticus GC 4547" numeric_readout=4
compound=COC(=O)c1c(O)ccc(O)c1C(=O)c1c(O)cc2c(c1O)[C@@H]1C=C[C@]3(C2)C(=C(O)c2c(O)cc(C)cc2[C@@H]3OC(C)=O)C1=O tgt="Staphylococcus haemolyticus GC 4547" numeric_readout=16

---

Staphylococcus aureus GC 4543 data, read-out MIC
Readout name: MIC (µg/mL)

compound="CCCCC(=O)O[C@H]1c2cc(C)cc(O)c2C(O)=C2C(=O)[C@H]3C=C[C@]21Cc1cc(O)c(C(=O)c2c(O)ccc(O)c2C(=O)OC)c(O)c13 [Example 8, Cyan-416 B pentanoate]" tgt="Staphylococcus aureus GC 4543" output_unit=µg/mL numeric_readout=4
compound="CCCCCC(=O)O[C@H]1c2cc(C)cc(O)c2C(O)=C2C(=O)[C@H]3C=C[C@]21Cc1cc(O)c(C(=O)c2c(O)ccc(O)c2C(=O)OC)c(O)c13 [Example 9, Cyan-416 B hexanoate]" tgt="Staphylococcus aureus GC 4543" output_unit=µg/mL numeric_readout=4
compound="COC(=O)c1c(O)ccc(O)c1C(=O)c1c(O)cc2c(c1O)[C@@H]1C=C[C@]3(C2)C(=C(O)c2c(O)cc(C)cc2[C@@H]3OC(=O)C(C)C)C1=O [Example 7, Cyan-416 B isobutyrate]" tgt="Staphylococcus aureus GC 4543" output_unit=µg/mL numeric_readout=4
compound=COC(=O)c1c(O)ccc(O)c1C(=O)c1c(O)cc2c(c1O)[C@@H]1C=C[C@]3(C2)C(=C(O)c2c(O)cc(C)cc2[C@@H]3OC(C)=O)C1=O tgt="Staphylococcus aureus GC 4543" output_unit=µg/mL numeric_readout=8
compound="CCCC(=O)O[C@H]1c2cc(C)cc(O)c2C(O)=C2C(=O)[C@H]3C=C[C@]21Cc1cc(O)c(C(=O)c2c(O)ccc(O)c2C(=O)OC)c(O)c13 [Example 6, Cyan-416 B butyrate]" tgt="Staphylococcus aureus GC 4543" output_unit=µg/mL numeric_readout=8
